The measurements presented in this section are drawn from patent US9073819B2.

# assayed.system: NMDA-A (NR1/2A) receptors (Homo sapiens, UniProt Q05586+Q12879)
# Sequence (Q12879 23-1464, other chains not shown): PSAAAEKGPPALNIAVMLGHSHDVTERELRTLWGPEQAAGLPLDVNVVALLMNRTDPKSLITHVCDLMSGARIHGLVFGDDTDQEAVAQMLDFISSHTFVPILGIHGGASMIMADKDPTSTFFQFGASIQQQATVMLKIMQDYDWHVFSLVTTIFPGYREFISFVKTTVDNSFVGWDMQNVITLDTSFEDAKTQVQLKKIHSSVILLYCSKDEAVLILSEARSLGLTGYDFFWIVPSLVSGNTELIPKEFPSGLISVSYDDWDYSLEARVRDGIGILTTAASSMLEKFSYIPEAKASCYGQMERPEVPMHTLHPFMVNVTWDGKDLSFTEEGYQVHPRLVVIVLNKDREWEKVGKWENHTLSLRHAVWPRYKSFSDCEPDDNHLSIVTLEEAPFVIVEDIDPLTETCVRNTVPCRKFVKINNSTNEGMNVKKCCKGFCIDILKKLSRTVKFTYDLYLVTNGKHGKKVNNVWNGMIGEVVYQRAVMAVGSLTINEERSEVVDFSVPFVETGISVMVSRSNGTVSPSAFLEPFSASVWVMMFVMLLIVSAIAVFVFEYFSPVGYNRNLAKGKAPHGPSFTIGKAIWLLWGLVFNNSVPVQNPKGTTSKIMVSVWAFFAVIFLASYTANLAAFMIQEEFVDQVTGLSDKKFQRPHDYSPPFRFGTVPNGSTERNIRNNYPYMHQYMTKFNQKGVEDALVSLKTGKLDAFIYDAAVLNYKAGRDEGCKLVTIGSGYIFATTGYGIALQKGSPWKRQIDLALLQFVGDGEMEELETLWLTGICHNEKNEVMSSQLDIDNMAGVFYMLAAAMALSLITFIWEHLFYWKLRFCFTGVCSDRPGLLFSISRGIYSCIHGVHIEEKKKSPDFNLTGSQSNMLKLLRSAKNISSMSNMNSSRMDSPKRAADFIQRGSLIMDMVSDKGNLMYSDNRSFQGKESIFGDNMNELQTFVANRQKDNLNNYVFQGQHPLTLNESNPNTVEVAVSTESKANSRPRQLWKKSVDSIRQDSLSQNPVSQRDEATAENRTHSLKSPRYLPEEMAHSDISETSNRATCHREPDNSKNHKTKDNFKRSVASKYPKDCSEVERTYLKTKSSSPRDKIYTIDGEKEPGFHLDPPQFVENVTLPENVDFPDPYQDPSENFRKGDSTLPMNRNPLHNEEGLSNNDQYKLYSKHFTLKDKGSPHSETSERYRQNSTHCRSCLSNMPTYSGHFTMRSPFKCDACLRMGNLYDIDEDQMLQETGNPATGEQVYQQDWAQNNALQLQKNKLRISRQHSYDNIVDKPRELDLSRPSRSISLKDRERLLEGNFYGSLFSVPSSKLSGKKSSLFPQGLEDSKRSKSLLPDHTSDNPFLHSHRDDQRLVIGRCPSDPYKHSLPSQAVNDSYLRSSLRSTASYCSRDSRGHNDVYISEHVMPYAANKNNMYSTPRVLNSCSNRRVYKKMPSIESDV
# assay.details: Antagonist activity on NMDA receptors (current blockade and recovery)
# condition.summary: NMDA-A (NR1/2A); drug concentration 50 μM; current post drug treatment
readout.type: % Recovery

compound	result
c1ccc(C2(N3CCCCC3)CCCCC2)cc1 [PCP, Phencyclidine, reference compound]	93.953%
CNC1(c2ccccc2Cl)CCCC/C1=N\OC (stereo not shown)	98.453%
CNC1(c2ccccc2Cl)CCCC/C1=N\O (stereo not shown)	86.1538%
CNC1(c2ccccc2Cl)CCCCC1=O (stereo not shown) [Ketamine, reference compound]	84.745%

---

# assayed.system: α6β2δ GABAa receptors (Homo sapiens, UniProt O14764+P47870+Q16445)
# Construct: expressed in transfected cells
# Sequence (Q16445 20-453): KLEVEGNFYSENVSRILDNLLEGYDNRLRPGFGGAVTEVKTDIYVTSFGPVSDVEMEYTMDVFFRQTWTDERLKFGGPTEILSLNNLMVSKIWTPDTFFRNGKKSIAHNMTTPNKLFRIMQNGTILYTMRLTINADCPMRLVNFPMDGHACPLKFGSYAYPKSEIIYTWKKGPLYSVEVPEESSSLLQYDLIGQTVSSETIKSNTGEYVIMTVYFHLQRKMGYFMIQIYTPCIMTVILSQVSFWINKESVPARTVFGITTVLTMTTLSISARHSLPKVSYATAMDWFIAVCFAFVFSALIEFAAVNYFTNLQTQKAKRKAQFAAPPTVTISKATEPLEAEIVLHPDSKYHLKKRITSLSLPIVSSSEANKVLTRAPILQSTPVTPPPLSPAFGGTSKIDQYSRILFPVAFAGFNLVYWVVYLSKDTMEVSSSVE
# Sequence (P47870 25-512 limits assumed): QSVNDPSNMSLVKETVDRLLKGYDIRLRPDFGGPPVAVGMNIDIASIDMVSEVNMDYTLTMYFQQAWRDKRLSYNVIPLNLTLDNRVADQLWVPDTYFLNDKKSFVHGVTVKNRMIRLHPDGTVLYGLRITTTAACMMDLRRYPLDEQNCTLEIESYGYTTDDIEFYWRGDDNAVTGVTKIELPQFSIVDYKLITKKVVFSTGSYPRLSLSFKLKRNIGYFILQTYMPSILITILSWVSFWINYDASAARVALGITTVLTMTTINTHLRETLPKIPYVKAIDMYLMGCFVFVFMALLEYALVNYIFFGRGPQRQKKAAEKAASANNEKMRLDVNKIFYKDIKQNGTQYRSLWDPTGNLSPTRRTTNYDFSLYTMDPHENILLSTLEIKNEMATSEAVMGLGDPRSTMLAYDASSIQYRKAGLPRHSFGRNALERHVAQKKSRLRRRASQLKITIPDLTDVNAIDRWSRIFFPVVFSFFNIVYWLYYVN
# Sequence (O14764 25-452): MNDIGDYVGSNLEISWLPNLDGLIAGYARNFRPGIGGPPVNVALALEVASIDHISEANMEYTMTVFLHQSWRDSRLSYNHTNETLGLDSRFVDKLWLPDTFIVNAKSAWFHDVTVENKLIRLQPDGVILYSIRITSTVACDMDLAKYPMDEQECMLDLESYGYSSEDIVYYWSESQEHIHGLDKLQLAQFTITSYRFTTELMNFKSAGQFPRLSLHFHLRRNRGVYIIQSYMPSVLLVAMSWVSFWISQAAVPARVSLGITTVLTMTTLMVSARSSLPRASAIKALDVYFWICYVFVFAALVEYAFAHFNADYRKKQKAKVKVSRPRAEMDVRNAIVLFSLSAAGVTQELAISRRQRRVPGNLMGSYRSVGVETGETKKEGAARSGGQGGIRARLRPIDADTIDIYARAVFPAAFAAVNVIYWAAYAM
# assay.details: Agonist activity of ketamine analogues on GABAa receptors (potentiation of GABA current, oocyte expression system)
# Type: cell-based
# condition.summary: Conc. 50 (μM)
readout.type: IAverage = (IGABA + Drug/IGABA) 100

compound	result
CNC1(c2ccccc2Cl)CCCCC1O (stereo not shown) [Hydroxy]	123.98 n. amp
CNC1(c2ccccc2Cl)CCCC/C1=N\O (stereo not shown) [Oxime (Disalt)]	418 n. amp
CNC1(c2ccccc2Cl)CCCCC1=O (stereo not shown) [Ketamine, reference compound]	218.3 n. amp
CNC1(c2ccccc2Cl)CCCC/C1=N\O (stereo not shown) [Oxime (Monosalt)]	312.04 n. amp

---

# assayed.system: NMDA-A (NR1/2A) receptors (Homo sapiens, UniProt Q05586+Q12879)
# assay.details: Antagonist activity on NMDA receptors (current blockade and recovery)

compound	IC50 [µM]
CNC1(c2ccccc2Cl)CCCCC1=O (centres unmarked) [Ketamine, reference compound]	2.32
CNC1(c2ccccc2Cl)CCCC/C1=N\O (centres unmarked) [Oxime]	5.91
